System: HePG2 hepatocarcinoma cells
Type: cell-based
Settings: human, 4 h, 1 μM
Entries and their measured Cell viability follow.
reportedEndpoint: Cell viability

* COc1cc(-c2cc(-c3ccc(N4CCNCC4)cc3)cnc2N)cc(OC)c1OC | 95%
* COc1cc(-c2cc(-c3ccc(O)cc3)cnc2N)cc(OC)c1OC | 95%
* COc1cc(-c2cc(-c3ccc(N4CCNCC4)cc3)cnc2OC)cc(OC)c1OC | 92%
* CS(=O)(=O)CCNCc1ccc(-c2ccc3ncnc(Nc4ccc(OCc5cccc(F)c5)c(Cl)c4)c3c2)o1 [Lapatinib, reference compound] | 100%
* COc1cc(-c2cc(-c3ccc(N4CCNCC4)cc3)cnc2N)ccc1C | 95%
* COc1cc(-c2cc(-c3cccc(NS(C)(=O)=O)c3)cnc2N)cc(OC)c1OC | 97%
* Nc1ncc(-c2cccc(N3CCNCC3)c2)cc1-c1ccnc2ccccc12 | 92%
* COc1cc(-c2cc(-c3ccc(N4CCNCC4)cc3)cnc2N(C)C)cc(OC)c1OC | 92%
* CC(C)Oc1cccc(-c2cc(-c3ccc(N4CCNCC4)cc3)cnc2N)c1 | 94%
* Cc1nc(Nc2ncc(C(=O)Nc3c(C)cccc3Cl)s2)cc(N2CCN(CCO)CC2)n1 [Dasatinib, reference compound] | 94%
* COc1cc(-c2cc(-c3ccc(N4CCNCC4)cc3)cnc2C)cc(OC)c1OC | 91%
* CNc1ncc(-c2ccc(N3CCNCC3)cc2)cc1-c1cc(OC)c(OC)c(OC)c1 | 95%
